// values below are reported BRET β-Arrestin2 High AT1R Expression Ymax (%)
biological target: hAT1R (Homo sapiens); assay: BRET β-arrestin2 biosensor assay, higher receptor expression (hAT1R 5 ng/well), HEK293 cells; assay type: cell-based
Sequence (P30556 whole entry): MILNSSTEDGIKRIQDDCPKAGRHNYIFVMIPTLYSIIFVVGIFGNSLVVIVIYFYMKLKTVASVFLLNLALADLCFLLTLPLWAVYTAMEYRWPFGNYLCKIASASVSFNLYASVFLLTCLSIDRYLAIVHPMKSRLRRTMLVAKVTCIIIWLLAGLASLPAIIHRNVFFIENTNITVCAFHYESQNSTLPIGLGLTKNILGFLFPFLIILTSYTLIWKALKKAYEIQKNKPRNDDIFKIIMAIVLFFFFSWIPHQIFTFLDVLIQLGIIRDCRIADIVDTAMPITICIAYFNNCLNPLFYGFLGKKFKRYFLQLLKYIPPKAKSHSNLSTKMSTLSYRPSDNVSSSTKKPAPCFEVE
Quote the value and follow it with the unit of measurement.

compound | testResult
CCCCC(=O)N(Cc1ccc(-c2cc(N3CCCC(C)C3)ccc2-c2nn[nH]n2)cc1)C1(C(=O)O)CCCCC1 (stereo not shown) | 74.5%
CCCCc1ncc(C(=O)NCc2cccnn2)n1Cc1ccc(-c2cc(-c3ccccc3)ccc2-c2nn[nH]n2)cc1 | 92.5%
CCCc1nc(C(C)(C)O)c(C(=O)O)n1Cc1ccc(-c2cc(-c3ccccc3)ccc2-c2nn[nH]n2)cc1 | 77.8%
CCCCC1=NC2(CCCC2)C(=O)N1Cc1ccc(-c2cc(-c3ccc(C(=O)N(C)C)cc3)ccc2-c2nn[nH]n2)cc1 | 69.0%
CCOc1nc2cccc(C(=O)O)c2n1Cc1ccc(-c2cc(N3CCCC(F)(F)C3)ccc2C(=O)O)cc1 | 29.1%
CCc1nc2c(C)cc(C)nc2n1Cc1ccc(-c2cc(-c3ccccc3)ccc2C(=O)O)cn1 | 83.3%

API: the following record is the query input.
Incoming: Tell me measured BRET β-Arrestin2 High AT1R Expression Ymax (%) for CCOc1nc2cccc(C(=O)O)c2n1Cc1ccc(-c2cc(-c3ccc(C(=O)N(C)C)cc3)ccc2C(=O)O)cc1 please.
Outgoing: 86.8%

---

// values below are reported EC50
biological target: AGTR1 (Homo sapiens, UniProt P30556); construct: host or cells: Pathunter CHO-K1 AGTR1 β-arrestin cell line (CHO-K1); assay: DiscoveRx IP1 accumulation assay (HTRF), agonist mode, Pathunter CHO-K1 AGTR1 β-arrestin cell line; format: cell-based; conditions: read-out: IP-1 EC50
Sequence (P30556 whole entry): as above
Kindly provide the numeric value in µM only, without the unit symbol.

Reference set, count: 6
molecule | readout | testResult
CCCC1=NC2(CCCC2)C(=O)N1Cc1ccc(-c2cc(-c3cc(C)ccn3)ccc2-c2nn[nH]n2)cc1 | EC50 | 0.0397
CCc1nc2c(C)cc(C)nc2n1Cc1ccc(-c2cc(Oc3nccs3)ccc2-c2nn[nH]n2)cc1 | EC50 | 0.144
CCc1nc2c(C)cc(C)nc2n1Cc1ccc(-c2cc(N3CCC(C)CC3)ccc2-c2nn[nH]n2)cc1 | EC50 | 0.0473
CCC1=NC2(CCOC2)C(=O)N1Cc1ccc(-c2cc(-c3cccc(C)c3)ccc2-c2nnn[nH]2)cc1 (single isomer, unassigned) [Example 166] | EC50 | 0.103
CCCCC1=NC2(CCOC2)C(=O)N1Cc1ccc(-c2cc(-c3ccccc3)ccc2-c2nnn[nH]2)cc1 (single isomer, unassigned) [Example 147] | EC50 | 0.178
CCc1nc2c(C)cc(C)nc2n1Cc1ccc(-c2cc(-c3ccccc3)ccc2-c2nn[nH]n2)cc1 | EC50 | 0.019

Incoming: Tell me measured EC50 for CCc1nc2c(C)cc(C)nc2n1Cc1ccc(-c2cc(-c3ccccc3)ccc2-c2noc(=O)[nH]2)cc1 please.
Outgoing: 0.0384

---

target: hAT1R (Homo sapiens); test: cell-based; settings: Low AT1R Expression; read-out: BRET β-Arrestin2 Low AT1R Expression EC50
readout: pEC50
Interpret pEC50 as the negative base-10 log of the concentration measured in mol/L.

Reference set, count: 2
compound | testResult
CCc1nc2c(C)cc(C)nc2n1Cc1ccc(-c2cc(-c3ccccc3C(C)C)ccc2-c2nn[nH]n2)cc1 | 7.62
CCc1nc2c(C)cc(C)nc2n1Cc1ccc(-c2cc(-c3ccccc3)ccc2C(=O)O)cc1 | 7.07

Incoming: Tell me measured pEC50 for CCc1nc2c(C)cc(C)nc2n1Cc1ccc(-c2cc(-c3cc(C(F)F)ccn3)ccc2-c2nn[nH]n2)cc1 please.
Outgoing: 7.84

Incoming: Tell me measured pEC50 for CC1=NC2(CCCC2)C(=O)N1Cc1ccc(-c2cc(-c3ccccc3)ccc2-c2nn[nH]n2)cc1 please.
Outgoing: 7.02

Incoming: Tell me measured pEC50 for CCc1nc2c(C)cc(C)nc2n1Cc1ccc(-c2cc(-c3cc(C)cc(C)c3)ccc2-c2nn[nH]n2)cc1 please.
Outgoing: 8.03

Incoming: Tell me measured pEC50 for CC1=NC2(CCCC2)C(=O)N1Cc1ccc(-c2cc(-c3cc(C)ccn3)ccc2-c2nn[nH]n2)cc1 please.
Outgoing: 7.83

Incoming: Tell me measured pEC50 for CCCCC1=NC2(CCOC2)C(=O)N1Cc1ccc(-c2cc(-c3ccccc3O)ccc2-c2nnn[nH]2)cc1 (single isomer, unassigned) [Example 151] please.
Outgoing: 6.38

Incoming: Tell me measured pEC50 for CCC1=NC2(CCCC2)C(=O)N1Cc1ccc(-c2cc(-c3cc(C)ccn3)ccc2-c2nn[nH]n2)cc1 please.
Outgoing: 8.01

Incoming: Tell me measured pEC50 for CCc1nc2c(C)cc(C)nc2n1Cc1ccc(-c2cc(-c3cc(OC)ccn3)ccc2-c2nn[nH]n2)cc1 please.
Outgoing: 8.43

Incoming: Tell me measured pEC50 for CCc1nc2c(C)cc(C)nc2n1Cc1ccc(-c2cc(N3CCCC(F)(F)C3)ccc2-c2nn[nH]n2)cc1 please.
Outgoing: 6.82

Incoming: Tell me measured pEC50 for CCCCC1=NC2(CCCC2)C(=O)N1Cc1ccc(-c2cc(-c3ccccc3)ccc2-c2nn[nH]n2)cc1 please.
Outgoing: 7.57

Incoming: Tell me measured pEC50 for COc1ccnc(-c2ccc(-c3nn[nH]n3)c(-c3ccc(CN4C(=O)C5(CCCC5)N=C4C4CC4)cc3)c2)c1 please.
Outgoing: 7.27

Incoming: Tell me measured pEC50 for CCc1nc2c(C)cc(C)nc2n1Cc1ccc(-c2cc(-c3cccnc3OC)ccc2-c2nn[nH]n2)cc1 please.
Outgoing: 7.86

Incoming: Tell me measured pEC50 for CCCCC1=NC2(CCOC2)C(=O)N1Cc1ccc(-c2cc(-c3ccccc3)ccc2-c2nnn[nH]2)cc1 (single isomer, unassigned) [Example 146] please.
Outgoing: 7.28

Incoming: Tell me measured pEC50 for CCc1nc2c(C)cc(C)nc2n1Cc1ccc(-c2cc(-c3ccccc3O)ccc2-c2nn[nH]n2)cc1 please.
Outgoing: 8.62

Incoming: Tell me measured pEC50 for CCc1nc2c(C)cc(C)nc2n1Cc1ccc(-c2cc(C3CCCC3)ccc2-c2nn[nH]n2)cc1 please.
Outgoing: 7.52

Incoming: Tell me measured pEC50 for CCc1nc2c(C)cc(C)nc2n1Cc1ccc(-c2cc(C3CCCOC3)ccc2-c2nn[nH]n2)cc1 (stereo not shown) please.
Outgoing: 6.33

---

molecular target: hAT1R (Homo sapiens); assay: BRET Gq biosensor assay, agonist response, HEK293 cells; format: cell-based; conditions: section of the 42nd table directly before the BRET P63 section
readout: pEC50
Interpret pEC50 as the negative base-10 log of the concentration measured in mol/L.

Reference set, count: 5
chemicalStructure | readout | testResult
CCCCc1nc(Cl)c(C(=O)O)n1Cc1ccc(-c2cc(N3CC(C)(C)c4ccccc43)ccc2-c2noc(=O)[nH]2)cc1 | pEC50 | 6.31
CCCCc1ncc(C(=O)N2CCCCC2)n1Cc1ccc(-c2cc(-c3ccccc3)ccc2-c2nn[nH]n2)cc1 | pEC50 | 6.16
CCCCc1nc(Cl)c(C(=O)O)n1Cc1ccc(-c2cc(-c3cnn(C)c3)ccc2-c2nn[nH]n2)cc1 | pEC50 | 5.69
CCCCc1ncc(C(=O)NCCOC)n1Cc1ccc(-c2cc(-c3ccccc3)ccc2-c2nn[nH]n2)cc1 | pEC50 | 7.79
CCCCC(=O)N(Cc1ccc(-c2cc(-c3cc(F)cc(F)c3)ccc2-c2nn[nH]n2)cc1)[C@H](C(=O)O)C(C)C | pEC50 | 6.14

Incoming: Tell me measured pEC50 for CCCCc1nc(Cl)c(C(=O)O)n1Cc1ccc(-c2cc(N3CCC[C@H](C)C3)ccc2-c2noc(=O)[nH]2)cc1 please.
Outgoing: 4.78

Incoming: Tell me measured pEC50 for CCCCC(=O)N(Cc1ccc(-c2cc(-c3ccccc3)ccc2-c2nn[nH]n2)nc1)[C@H](C(=O)O)C(C)C please.
Outgoing: 6.56

Incoming: Tell me measured pEC50 for CCCc1nc(C(C)(C)O)c(C(=O)OCC)n1Cc1ccc(-c2cc(-c3ccccc3)ccc2-c2nn[nH]n2)cc1 please.
Outgoing: 5.65

Incoming: Tell me measured pEC50 for CCCCc1ncc(C(=O)NCCC(C)C)n1Cc1ccc(-c2cc(-c3ccccc3)ccc2-c2nn[nH]n2)cc1 please.
Outgoing: 7.37

Incoming: Tell me measured pEC50 for CCCCc1ncc(C(=O)N(C)C)n1Cc1ccc(-c2cc(-c3ccccc3)ccc2-c2nn[nH]n2)cc1 please.
Outgoing: 5.11

Incoming: Tell me measured pEC50 for CCCCc1nc(Cl)c(C(=O)O)n1Cc1ccc(-c2cc(-c3ccccc3)ccc2-c2nn[nH]n2)cc1 please.
Outgoing: 7.41
